Source listed as PubChem BioAssay (EPA / NIEHS).

Read-out: Human Leukocyte Antigen - DR isotype (HLADR), HLA-DRA (gene 3122)
Experiment: BSK_CASM3C_HLADR: BioMAP Diversity Plus: CASM3C Assay for Human Leukocyte Antigen - DR isotype (HLADR) Biomarker Activity (AID 2283043);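 note: cell-surface HLA-DR protein level quantified by ELISA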
Settings: primary human coronary artery smooth muscle cells; actives raise or lower the signal
The source made the active and inactive calls. Rule for the calls: active = hit-call score of the fitted dose curve at least 0.9, where 1 is the maximum; inactive = score below 0.9.
reported_property: AC50

{"compound": "CCC(C)Nc1c([N+](=O)[O-])cc(C(C)(C)C)cc1[N+](=O)[O-] (stereo unspecified)", "AC50": "inactive"}
{"compound": "CCOc1nc(NC)nc(NC(=O)NS(=O)(=O)c2ccccc2C(=O)OC)n1", "AC50": "inactive"}
{"compound": "COC(=O)c1ccccc1S(=O)(=O)NC(=O)N(C)c1nc(C)nc(OC)n1", "AC50": "inactive"}
{"compound": "O=C(O)C(F)(F)C(F)(F)C(F)(F)C(F)(F)C(F)(F)C(F)(F)C(F)(F)F", "AC50": "inactive"}
{"compound": "O=S1OCC2C(CO1)C1(Cl)C(Cl)=C(Cl)C2(Cl)C1(Cl)Cl (stereo unspecified)", "AC50": "32.5 µM (active)"}

// Input: Oc1ccc(Cl)cc1Cc1ccccc1 . Output its AC50 only.
31.1 µM (active) [middle of 7 runs]

Fill in reported AC50 for this entry: COP(=S)(OC)Oc1ccc([N+](=O)[O-])cc1
inactive

---

Read-out: Tumor necrosis factor receptor superfamily member 6 (Homo sapiens)
Assay: LTEA_HepaRG_FAS: Life Technologies and Expression Analysis (LTEA) Assay for Fas cell surface death receptor (FAS) using HepaRG (AID 2283447)
Conditions: mRNA level, 48 h; actives raise or lower the signal
Active and inactive are the calls of the source. How the source made its calls: active means hit-call score of the fitted dose curve at least 0.9, where 1 is the maximum; inactive means score below 0.9.
Response enum: 1 (yes) = active, 0 (no) = inactive

Some solved cases for reference:
{"molecule": "CN1CSC(=S)N(C)C1", "answer_label": "0 (no)"}
{"molecule": "COP(=S)(OC)Oc1ccc(SC)c(C)c1", "answer_label": "0 (no)"}
{"molecule": "O=[N+]([O-])c1c(Cl)c(Cl)c(Cl)c(Cl)c1Cl", "answer_label": "0 (no)"}

Okay, next one:
What call does the record list for N#CN ?
0 (no)

---

Target: human Norepinephrine Transporter (NET), SLC6A2 (gene 6530)
Test: NVS_TR_hNET: NovaScreen (NVS) Transporter Assay for human Norepinephrine Transporter (NET) (AID 2283377);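 note: cell-free membrane protein extracted from CHO cells expressing human NET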
Results filed as inconclusive are left out. The source made the active and inactive calls. The calls were made as follows: active = hit-call score of the fitted dose curve at least 0.9, where 1 is the maximum; inconclusive = response in the unintended direction; inactive = score below 0.9.
Pick one and only one: yes for active, no for inactive

Completed entries (count: 3):
{"compound": "N#CN", "target_desc": "human Norepinephrine Transporter (NET), SLC6A2 (gene 6530)", "answer_label": "yes"}
{"compound": "CC[C@H](C)[C@H]1O[C@]2(C=C[C@@H]1C)C[C@@H]1C[C@@H](C/C=C(\\C)[C@@H](O[C@H]3C[C@H](OC)[C@@H](O[C@H]4C[C@H](OC)[C@@H](O)[C@H](C)O4)[C@H](C)O3)[C@@H](C)/C=C/C=C3\\CO[C@@H]4[C@H](O)C(C)=C[C@@H](C(=O)O1)[C@]34O)O2 (tested in a mixture with another compound)", "target_desc": "human Norepinephrine Transporter (NET), SLC6A2 (gene 6530)", "answer_label": "yes"}
{"compound": "O=S(=O)(O)C(F)(F)C(F)(F)C(F)(F)C(F)(F)C(F)(F)C(F)(F)C(F)(F)C(F)(F)F", "target_desc": "human Norepinephrine Transporter (NET), SLC6A2 (gene 6530)", "answer_label": "no"}

Now let's try a different one.
Could you check what this test reported for Oc1ccc(Cl)cc1Cc1ccccc1 ?
yes

---

Assay: Tanguay_ZF_120hpf_AXIS_legacy: (Legacy) Oregon State University Tanguay Lab 120 Hour Post-fertilization zebrafish Assay for Body Axis Malformation (AID 2283635)
Records with an inconclusive call do not appear. Activity calls are given as the source filed them. Rule for the calls: active = hit-call score of the fitted dose curve at least 0.9, where 1 is the maximum; inconclusive = response in the unintended direction; inactive = score below 0.9.
Response enum: active, inactive

# count of solved cases: 5
{"compound": "C#CCN1C(=O)COc2cc(F)c(N3C(=O)C4=C(CCCC4)C3=O)cc21", "answer_label": "inactive"}
{"compound": "CCCN(CCC)c1c([N+](=O)[O-])cc(C(F)(F)F)cc1[N+](=O)[O-]", "answer_label": "inactive"}
{"compound": "COP(=O)(OC)OC=C(Cl)Cl", "answer_label": "inactive"}
{"compound": "CCOCN(C(=O)CCl)c1c(C)cccc1CC", "answer_label": "active"}
{"compound": "CN1CSC(=S)N(C)C1", "answer_label": "active"}

I would be grateful if you could indicate the recorded call for OCCOc1ccccc1 .
inactive

Any idea what this test logged for CCOC1Oc2ccc(OS(C)(=O)=O)cc2C1(C)C (stereo not drawn) ?
inactive

Could you please tell me the result logged for CCC(C)Nc1c([N+](=O)[O-])cc(C(C)(C)C)cc1[N+](=O)[O-] (stereo not drawn) in this assay?
inactive

Please let me know the test result on file for CC(C)OC(=O)Nc1cccc(Cl)c1 .
inactive

I would be grateful if you could indicate the recorded call for CNC(=O)CSP(=S)(OC)OC .
inactive

---

Target: mouse Cholecystokinin, CCK2 Receptor (CCKB), Cckbr (gene 12426) (UniProt P56481)
Sequence (P56481 whole entry, looked up): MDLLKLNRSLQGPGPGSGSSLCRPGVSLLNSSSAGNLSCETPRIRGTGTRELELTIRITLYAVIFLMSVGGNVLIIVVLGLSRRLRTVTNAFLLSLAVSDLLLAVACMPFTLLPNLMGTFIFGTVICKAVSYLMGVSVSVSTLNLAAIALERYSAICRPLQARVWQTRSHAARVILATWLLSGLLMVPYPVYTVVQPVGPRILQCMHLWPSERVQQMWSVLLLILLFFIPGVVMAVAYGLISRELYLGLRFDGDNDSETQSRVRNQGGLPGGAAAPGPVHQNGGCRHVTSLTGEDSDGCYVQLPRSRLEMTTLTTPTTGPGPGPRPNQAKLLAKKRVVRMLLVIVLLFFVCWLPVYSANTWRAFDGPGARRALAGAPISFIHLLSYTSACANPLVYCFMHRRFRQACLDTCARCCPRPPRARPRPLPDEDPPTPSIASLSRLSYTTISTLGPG
Assay: NVS_GPCR_mCKKBCentral: NovaScreen (NVS) G Protein-Coupled Receptor Assay for mouse Cholecystokinin, CCK2 Receptor (CCKB) (AID 2283293)
Inconclusive results are not listed. Activity calls are given as the source filed them. How the source made its calls: active means hit-call score of the fitted dose curve at least 0.9, where 1 is the maximum; inconclusive means response in the unintended direction; inactive means score below 0.9.

{"chemical_structure": "CCC(C)(C)C(=O)OC1=C(c2ccc(Cl)cc2Cl)C(=O)OC12CCCCC2", "AC50": "inactive"}
{"chemical_structure": "CCc1ccc(C(=O)NN(C(=O)c2cc(C)cc(C)c2)C(C)(C)C)cc1", "AC50": "inactive"}
{"chemical_structure": "Oc1ccc(Cl)cc1Cc1ccccc1", "AC50": "19.8 µM (active) [middle of 4 runs]"}

---

Read-out: Interleukin-8 (IL8), CXCL8 (gene 3576)
Assay: BSK_3C_IL8: BioMAP Diversity Plus: 3C Assay for Interleukin-8 (IL8) Biomarker Activity (AID 2283020)
Conditions: primary human endothelial cells (HUVEC); actives raise or lower the signal
Activity calls are given as the source filed them. How the source made its calls: active means hit-call score of the fitted dose curve at least 0.9, where 1 is the maximum; inactive means score below 0.9.
Hi! Could you answer with just one of these? class 1 for active, class 0 for inactive

{"chemical_structure": "COC(=O)c1ccccc1CS(=O)(=O)NC(=O)Nc1nc(OC)cc(OC)n1", "answer_label": "class 0"}
{"chemical_structure": "C[C@H]1[C@H](c2ccc(Cl)cc2)SC(=O)N1C(=O)NC1CCCCC1", "answer_label": "class 1"}
{"chemical_structure": "CC(C)N(C(=O)COc1nnc(C(F)(F)F)s1)c1ccc(F)cc1", "answer_label": "class 0"}
{"chemical_structure": "COP(=S)(OC)Oc1ccc([N+](=O)[O-])cc1", "answer_label": "class 1"}
{"chemical_structure": "CCC(C)(C)C(=O)OC1=C(c2ccc(Cl)cc2Cl)C(=O)OC12CCCCC2", "answer_label": "class 1"}

Could you check what this test reported for CCOc1nc(NC)nc(NC(=O)NS(=O)(=O)c2ccccc2C(=O)OC)n1 ?
class 0

---

Target: Estrogen receptor (Homo sapiens) (UniProt P03372)
Sequence (P03372 whole entry, looked up): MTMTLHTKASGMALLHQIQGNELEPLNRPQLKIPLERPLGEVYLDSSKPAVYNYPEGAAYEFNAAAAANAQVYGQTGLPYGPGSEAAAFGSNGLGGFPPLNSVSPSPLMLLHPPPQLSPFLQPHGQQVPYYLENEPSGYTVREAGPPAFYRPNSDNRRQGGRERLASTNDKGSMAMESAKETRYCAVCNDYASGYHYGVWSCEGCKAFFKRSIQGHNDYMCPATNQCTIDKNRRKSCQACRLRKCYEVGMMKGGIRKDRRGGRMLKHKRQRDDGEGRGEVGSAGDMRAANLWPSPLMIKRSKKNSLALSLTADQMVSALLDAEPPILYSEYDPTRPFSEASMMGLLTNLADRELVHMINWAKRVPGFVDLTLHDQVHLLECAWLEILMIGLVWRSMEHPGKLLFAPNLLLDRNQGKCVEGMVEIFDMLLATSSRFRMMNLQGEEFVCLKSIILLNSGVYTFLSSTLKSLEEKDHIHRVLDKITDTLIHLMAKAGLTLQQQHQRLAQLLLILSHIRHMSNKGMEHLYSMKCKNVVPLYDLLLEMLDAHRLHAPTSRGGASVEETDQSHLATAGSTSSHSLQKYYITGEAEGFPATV
Test: ATG_ERa_TRANS: Attagene TRANS-FACTORIAL HepG2 Assay for human Estrogen Receptor alpha (ERa) (AID 2282970)
Settings: HepG2 Attagene TRANS ERa GAL4 reporter, mRNA
Records with an inconclusive call do not appear. Active and inactive are the calls of the source. How the source made its calls: active means hit-call score of the fitted dose curve at least 0.9, where 1 is the maximum; inconclusive means response in the unintended direction; inactive means score below 0.9.
Outcomes you can answer with include only these: 1 (yes) for active, 0 (no) for inactive

{"compound": "Cc1[nH]c(=O)n(C(C)(C)C)c(=O)c1Cl", "answer_label": "0 (no)"}

Which result was noted for this compound in the test: COP(=S)(OC)Oc1ccc(SC)c(C)c1
1 (yes)

Test call, this compound: CC1(C)C(C=C(Cl)Cl)C1C(=O)OC(C#N)c1ccc(F)c(Oc2ccccc2)c1 (configuration not stated)
0 (no)

---

Read-out: Bcl-2 (BAX) gene, BAX (gene 581)
Test: LTEA_HepaRG_BAX: Life Technologies and Expression Analysis (LTEA) Assay for Bcl-2 (BAX) gene using HepaRG (AID 2283470)
Conditions: mRNA level, 48 h; actives raise or lower the signal
Active and inactive are the calls of the source. How the source made its calls: active means hit-call score of the fitted dose curve at least 0.9, where 1 is the maximum; inactive means score below 0.9.
I would appreciate it if you answered using one of these outcomes: class 1 = active, class 0 = inactive

Field: example entries. Status: answers known.
{"compound": "CCOCN(C(=O)CCl)c1c(C)cccc1CC", "answer_label": "class 0"}
{"compound": "CNC(=O)/C=C(\\C)OP(=O)(OC)OC", "answer_label": "class 0"}
{"compound": "CCC(C)Nc1c([N+](=O)[O-])cc(C(C)(C)C)cc1[N+](=O)[O-] (stereo unspecified)", "answer_label": "class 0"}
{"compound": "CCN(CC)C(=O)SCc1ccc(Cl)cc1", "answer_label": "class 0"}
{"compound": "OCCOc1ccccc1", "answer_label": "class 0"}
{"compound": "C#CCN1C(=O)COc2cc(F)c(N3C(=O)C4=C(CCCC4)C3=O)cc21", "answer_label": "class 0"}
{"compound": "N#Cc1c(Cl)c(Cl)c(Cl)c(C#N)c1Cl", "answer_label": "class 1"}
{"compound": "O=C(NC(=O)c1c(F)cccc1F)Nc1ccc(OC(F)(F)C(F)OC(F)(F)F)c(Cl)c1 (stereo unspecified)", "answer_label": "class 0"}

Assay result, entry N#CN — outcome?
class 0

Record request — test call for CC[C@H](C)[C@H]1O[C@]2(C=C[C@@H]1C)C[C@@H]1C[C@@H](C/C=C(\C)[C@@H](O[C@H]3C[C@H](OC)[C@@H](O[C@H]4C[C@H](OC)[C@@H](O)[C@H](C)O4)[C@H](C)O3)[C@@H](C)/C=C/C=C3\CO[C@@H]4[C@H](O)C(C)=C[C@@H](C(=O)O1)[C@]34O)O2 (tested in a mixture with another compound)
class 1

Look up the recorded call for CNC(=O)CSP(=S)(OC)OC in this test.
class 0

Would you mind telling me which call this test gave O=C(O)COc1ccc(Cl)cc1Cl ?
class 0

I'd appreciate the recorded outcome for CC(C)(C)C(O)C(Oc1ccc(Cl)cc1)n1cncn1 (stereo unspecified) from this test.
class 0

Record request — test call for CN1CSC(=S)N(C)C1
class 0

Returns: the outcome recorded for COP(=O)(OC)OC=C(Cl)Cl in this assay.
class 0

Per the records of this test, what outcome belongs to CCCN(CCC)c1c([N+](=O)[O-])cc(C(F)(F)F)cc1[N+](=O)[O-] ?
class 0

Hi, do you know how Clc1ccccc1-c1nnc(-c2ccccc2Cl)nn1 came out in this test?
class 0

Each compound tested received a call. Report the one for O=S1OCC2C(CO1)C1(Cl)C(Cl)=C(Cl)C2(Cl)C1(Cl)Cl (stereo unspecified) .
class 0

Entry O=C(Nc1ccccc1)Nc1cnns1 : call = ?
class 0

I'd appreciate the recorded outcome for Oc1ccc(Cl)cc1Cc1ccccc1 from this test.
class 0

Look up the recorded call for CCc1ccc(C(=O)NN(C(=O)c2cc(C)cc(C)c2)C(C)(C)C)cc1 in this test.
class 0
